Listing of entries alongside the reported IC50.
# Tested on: A375 multi-cell spheroids with HUVEC/MSC, viability
# Assay explanation: Anticancer human tumor A375 cell line growth inhibition [GQUAD];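 also: spheroids exposed to compounds for seven days before readout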
# Condition description: curve of first compound; second compound 0.0316 µM

Molecule	Inequality symbol	IC50 [µM]
Cc1[nH]c2ccccc2c1CCNCc1ccc(/C=C/C(=O)NO)cc1 + Cc1cnc(CNC(=O)c2c(=O)c3ccc(N4CCCN(C)CC4)nc3n3c2sc2ccccc23)cn1	=	0.112
COc1cccc2c1C(=O)c1c(O)c3c(c(O)c1C2=O)CC(O)(C(=O)CO)CC3OC1CC(N)C(O)C(C)O1 (stereo not drawn) + CN(C)c1ccc(Nc2c3ccc(NC(=O)CCN4CCCC4)cc3nc3cc(NC(=O)CCN4CCCC4)ccc23)cc1	=	0.196
C#Cc1c(F)ccc2cc(O)cc(-c3ncc4c(N5CC6CCC(C5)N6)nc(OCC56CCCN5CC(F)C6)nc4c3F)c12 (stereo not drawn) + Cc1cnc(CNC(=O)c2c(=O)c3ccc(N4CCCN(C)CC4)nc3n3c2sc2ccccc23)cn1	>	10

----------
Each record here notes measured viability, T/C.
# System: A375 multi-cell spheroids with HUVEC/MSC, viability
# Assay explanation: Anticancer human tumor A375 cell line growth inhibition [GQUAD];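 also: spheroids exposed to compounds for seven days before readout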
# Condition description: second compound 0.0316 µM; first compound 0.0999 µM; stronger effect = lower value

Compound	viability, T/C [%]
Cn1ncnc1[C@H]1c2n[nH]c(=O)c3cc(F)cc(c23)N[C@@H]1c1ccc(F)cc1 + Cc1cnc(CNC(=O)c2c(=O)c3ccc(N4CCCN(C)CC4)nc3n3c2sc2ccccc23)cn1	75.6
CCc1c2c(nc3ccc(O)cc13)-c1cc3c(c(=O)n1C2)COC(=O)[C@]3(O)CC + Cc1[nH]c2ccc(F)cc2c1-c1nc2c3cccnc3c3ncccc3c2[nH]1	4.81
CCc1c2c(nc3ccc(O)cc13)-c1cc3c(c(=O)n1C2)COC(=O)[C@]3(O)CC + Cc1cnc(CNC(=O)c2c(=O)c3ccc(N4CCCN(C)CC4)nc3n3c2sc2ccccc23)cn1	5.18

----------
# Test system: A375 multi-cell spheroids with HUVEC/MSC, viability
# Assay explanation: Anticancer human tumor A375 cell line growth inhibition [GQUAD];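 also: spheroids exposed to compounds for seven days before readout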
# Condition description: second compound 0.1 µM; first compound 0.1 µM; stronger effect = lower value
Recorded viability, T/C, one value per entry.

Compound	Test target	viability, T/C
COc1ncnc(C2CC2)c1-c1ncc2cnn(Cc3ccc(-c4nc(C(F)(F)F)cn4C(C)C)cc3)c2n1 + CN(C)c1ccc(Nc2c3ccc(NC(=O)CCN4CCCC4)cc3nc3cc(NC(=O)CCN4CCCC4)ccc23)cc1	A375 multi-cell spheroids with HUVEC/MSC, viability	105%
CC1COCCN1c1cc(C2(S(C)(=N)=O)CC2)nc(-c2ccnc3[nH]ccc23)n1 (stereo not given) + CN(C)c1ccc(Nc2c3ccc(NC(=O)CCN4CCCC4)cc3nc3cc(NC(=O)CCN4CCCC4)ccc23)cc1	A375 multi-cell spheroids with HUVEC/MSC, viability	104%
O=C(NO)c1cnc(N2CCN(S(=O)(=O)c3ccc4ccccc4c3)CC2)nc1 + Cc1[nH]c2ccc(F)cc2c1-c1nc2c3cccnc3c3ncccc3c2[nH]1	A375 multi-cell spheroids with HUVEC/MSC, viability	119%
C#Cc1c(F)ccc2cc(O)cc(-c3ncc4c(N5CC6CCC(C5)N6)nc(OCC56CCCN5CC(F)C6)nc4c3F)c12 (stereo not given) + Cc1cnc(CNC(=O)c2c(=O)c3ccc(N4CCCN(C)CC4)nc3n3c2sc2ccccc23)cn1	A375 multi-cell spheroids with HUVEC/MSC, viability	74.6%
Cc1cccc(N(C)C(=O)C2C(O)CCN2c2nc(C)cc(C(F)(F)F)c2C#N)c1 (stereo not given) + CN(C)c1ccc(Nc2c3ccc(NC(=O)CCN4CCCC4)cc3nc3cc(NC(=O)CCN4CCCC4)ccc23)cc1	A375 multi-cell spheroids with HUVEC/MSC, viability	104%

----------
# Tested on: A375 multi-cell spheroids with HUVEC/MSC, viability
# Assay explanation: Anticancer human tumor A375 cell line growth inhibition [GQUAD];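 also: spheroids exposed to compounds for seven days before readout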
# Condition description: curve of first compound; second compound 0.1 µM

Compound	Unit abbreviation	Inequality symbol	IC50
CC(C)n1c(=O)n(C)c2cnc3cc(F)c(-c4ccc(OCCCN5CCCCC5)nc4)cc3c21 + Cc1cnc(CNC(=O)c2c(=O)c3ccc(N4CCCN(C)CC4)nc3n3c2sc2ccccc23)cn1	nM	>	10000
CC(=O)O[C@H]1C(=O)[C@@]2(C)[C@H]([C@H](OC(=O)c3ccccc3)[C@]3(O)C[C@H](OC(=O)[C@H](O)[C@@H](NC(=O)c4ccccc4)c4ccccc4)C(C)=C1C3(C)C)[C@]1(OC(C)=O)CO[C@@H]1C[C@@H]2O + CN(C)c1ccc(Nc2c3ccc(NC(=O)CCN4CCCC4)cc3nc3cc(NC(=O)CCN4CCCC4)ccc23)cc1	nM	=	61.3
CC1COCCN1c1cc(C2(O)CC3CCC(C2)O3)c2cnn(-c3ccn[nH]3)c2n1 (stereo unspecified) + CN(C)c1ccc(Nc2c3ccc(NC(=O)CCN4CCCC4)cc3nc3cc(NC(=O)CCN4CCCC4)ccc23)cc1	nM	=	188
CC(C)(O)C1CCC(Nc2ccc3ncc(-c4cccc(C(F)(F)F)c4)n3n2)CC1 (stereo unspecified) + Cc1cnc(CNC(=O)c2c(=O)c3ccc(N4CCCN(C)CC4)nc3n3c2sc2ccccc23)cn1	nM	=	1730
CC1COCCN1c1cc(-c2ccnn2C)c2ccnc(-c3ccn[nH]3)c2n1 (stereo unspecified) + Cc1[nH]c2ccc(F)cc2c1-c1nc2c3cccnc3c3ncccc3c2[nH]1	nM	=	613
O=C(c1cc(Cc2n[nH]c(=O)c3ccccc23)ccc1F)N1CCN(C(=O)C2CC2)CC1 + Cc1[nH]c2ccc(F)cc2c1-c1nc2c3cccnc3c3ncccc3c2[nH]1	nM	>	10000
Cc1[nH]c2ccccc2c1CCNCc1ccc(/C=C/C(=O)NO)cc1 + Cc1cnc(CNC(=O)c2c(=O)c3ccc(N4CCCN(C)CC4)nc3n3c2sc2ccccc23)cn1	nM	=	48.8
COc1cc(C2c3cc4c(cc3C(OC3OC5COC(C)OC5C(O)C3O)C3COC(=O)C23)OCO4)cc(OC)c1O (stereo unspecified) + Cc1[nH]c2ccc(F)cc2c1-c1nc2c3cccnc3c3ncccc3c2[nH]1	nM	=	1010
O=c1[nH]cc(F)c(=O)[nH]1 + Cc1[nH]c2ccc(F)cc2c1-c1nc2c3cccnc3c3ncccc3c2[nH]1	nM	>	10000
Cc1[nH]c2ccccc2c1CCNCc1ccc(/C=C/C(=O)NO)cc1 + CN(C)c1ccc(Nc2c3ccc(NC(=O)CCN4CCCC4)cc3nc3cc(NC(=O)CCN4CCCC4)ccc23)cc1	nM	=	133
CCCS(=O)(=O)Nc1ccc(F)c(C(=O)c2c[nH]c3ncc(-c4ccc(Cl)cc4)cc23)c1F + CN(C)c1ccc(Nc2c3ccc(NC(=O)CCN4CCCC4)cc3nc3cc(NC(=O)CCN4CCCC4)ccc23)cc1	nM	<	31.6

----------
viability, T/C by entry:
# Test system: A375 multi-cell spheroids with HUVEC/MSC, viability
# Assay explanation: Anticancer human tumor A375 cell line growth inhibition [GQUAD];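 also: spheroids exposed to compounds for seven days before readout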
# Condition description: second compound 1 µM; first compound 1 µM; stronger effect = lower value
Measurement type: viability, T/C (%)

Compound	Test target	Measurement type	Recorded number
O=c1[nH]cc(F)c(=O)[nH]1 + Cc1cnc(CNC(=O)c2c(=O)c3ccc(N4CCCN(C)CC4)nc3n3c2sc2ccccc23)cn1	A375 multi-cell spheroids with HUVEC/MSC, viability	viability, T/C	51.7
C=CC(=O)N1CCN(c2nc(=O)n(-c3c(C)ccnc3C(C)C)c3nc(-c4c(O)cccc4F)c(F)cc23)C(C)C1 (stereo not given) + CN(C)c1ccc(Nc2c3ccc(NC(=O)CCN4CCCC4)cc3nc3cc(NC(=O)CCN4CCCC4)ccc23)cc1	A375 multi-cell spheroids with HUVEC/MSC, viability	viability, T/C	102
O=C(c1cc(Cc2n[nH]c(=O)c3ccccc23)ccc1F)N1CCN(C(=O)C2CC2)CC1 + CN(C)c1ccc(Nc2c3ccc(NC(=O)CCN4CCCC4)cc3nc3cc(NC(=O)CCN4CCCC4)ccc23)cc1	A375 multi-cell spheroids with HUVEC/MSC, viability	viability, T/C	103
COc1ncnc(C2CC2)c1-c1ncc2cnn(Cc3ccc(-c4nc(C(F)(F)F)cn4C(C)C)cc3)c2n1 + CN(C)c1ccc(Nc2c3ccc(NC(=O)CCN4CCCC4)cc3nc3cc(NC(=O)CCN4CCCC4)ccc23)cc1	A375 multi-cell spheroids with HUVEC/MSC, viability	viability, T/C	112
Nc1ccn(C2OC(CO)C(O)C2(F)F)c(=O)n1 (stereo not given) + Cc1cnc(CNC(=O)c2c(=O)c3ccc(N4CCCN(C)CC4)nc3n3c2sc2ccccc23)cn1	A375 multi-cell spheroids with HUVEC/MSC, viability	viability, T/C	13.8

----------
# System: A375 multi-cell spheroids with HUVEC/MSC, viability
# Assay explanation: Anticancer human tumor A375 cell line growth inhibition [GQUAD];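 also: spheroids exposed to compounds for seven days before readout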
# Condition description: second compound 3.16 µM; first compound 10 µM; stronger effect = lower value

Compound	viability, T/C
CCCS(=O)(=O)Nc1ccc(F)c(C(=O)c2c[nH]c3ncc(-c4ccc(Cl)cc4)cc23)c1F + Cc1cnc(CNC(=O)c2c(=O)c3ccc(N4CCCN(C)CC4)nc3n3c2sc2ccccc23)cn1	0.08%
CC(C)n1c(=O)n(C)c2cnc3cc(F)c(-c4ccc(OCCCN5CCCCC5)nc4)cc3c21 + Cc1cnc(CNC(=O)c2c(=O)c3ccc(N4CCCN(C)CC4)nc3n3c2sc2ccccc23)cn1	28.4%
C#Cc1c(F)ccc2cc(O)cc(-c3ncc4c(N5CC6CCC(C5)N6)nc(OCC56CCCN5CC(F)C6)nc4c3F)c12 (stereo not given) + Cc1cnc(CNC(=O)c2c(=O)c3ccc(N4CCCN(C)CC4)nc3n3c2sc2ccccc23)cn1	33.7%
Cc1cccc(N(C)C(=O)C2C(O)CCN2c2nc(C)cc(C(F)(F)F)c2C#N)c1 (stereo not given) + Cc1cnc(CNC(=O)c2c(=O)c3ccc(N4CCCN(C)CC4)nc3n3c2sc2ccccc23)cn1	38.4%
COc1ncnc(C2CC2)c1-c1ncc2cnn(Cc3ccc(-c4nc(C(F)(F)F)cn4C(C)C)cc3)c2n1 + Cc1[nH]c2ccc(F)cc2c1-c1nc2c3cccnc3c3ncccc3c2[nH]1	34.3%

From: PubChem BioAssay AID2060485
